# measured.on: T1, PHD finger of human UHRF1 (residues 299–366) (human, UniProt Q96T88 299-366)
# T1 construct: UHRF1, human, PHD finger, residues 299–366; also called hPHD; UHRF1 PHD finger; source: recombinant, purified (glutathione Sepharose 4B, HiTrap Q HP, Superdex75); not shown: GST, N-terminal, cleaved; SUMO-1, N-terminal, cleaved
# T1 sequence (looked up): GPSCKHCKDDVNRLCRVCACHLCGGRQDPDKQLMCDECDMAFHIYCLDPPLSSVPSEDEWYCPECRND
# experimental.protocol: ITC; hPHD and PAF15_(2-11) or H3 peptides; VP-ITC; 10 mM HEPES-NaOH (pH 7.5), 150 mM NaCl, 0.25 mM TCEP; one-site model
# measurement.context: both partners purified
property.name: Kd
Provide a numeric answer, followed by its unit.

INSERT INTO assay_data (binder, value_observed) VALUES
  ('VRTKADSVPG (peptide, UniProt Q15004 2-11, looked up, PCNA-associated factor 15 (PAF15), human, residues 2–11; begins with 2VRTK5; also called hPAF15_(2-11); PAF15_(2-11); source: synthetic peptide (Toray Research Center)) [human PAF15 (residues 2–11) peptide]', '2200 nM');

Consider the additional binder presented here.
Sample ARTKQTARKST (Unmodified free N-terminus assumed (initiator Met removed). Peptide limits are not printed in the supplied text (ITC in Supplementary Fig. 2d). Mature H3 residues 1-11 taken by convention from UHRF1 …) [N-terminal histone H3 peptide] — what was its Kd?
1500 nM
